Molecular target: T1, human tissue factor pathway inhibitor (TFPI) (human, UniProt P10646 29-304, limits assumed)
T1 construct: bought; also called hTFPI; human TFPI
T1 sequence (looked up): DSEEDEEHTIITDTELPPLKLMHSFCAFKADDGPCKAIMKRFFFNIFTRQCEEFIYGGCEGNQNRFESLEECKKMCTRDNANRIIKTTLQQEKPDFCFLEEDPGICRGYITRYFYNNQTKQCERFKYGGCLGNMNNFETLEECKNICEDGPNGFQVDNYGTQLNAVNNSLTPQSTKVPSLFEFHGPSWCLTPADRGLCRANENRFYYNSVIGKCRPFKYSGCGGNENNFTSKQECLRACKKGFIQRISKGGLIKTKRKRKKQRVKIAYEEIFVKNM
Test: competitive ELISA
outcome-measure: variant/HC_K99L (ratio)
The answer is to be given in ratio; state only the numeric part.

| binder | unit-tag | variant/HC_K99L |
| --- | --- | --- |
| 2A8 HC S35D+S55R+K99L/LC R28P+Y48F+N51V+D91W (Fab, V domains shown) VH: QVQLVESGGGLVQPGGSLRLSCAASGFTFRSYGMDWVRQAPGKGLEWVSSIRGSRSSTYYADSVKGRFTISRDNSKNTLYLQMNSLRAEDTAVYYCARLYRYWFDYWGQGTLVTVSS VL: DIELTQPPSVSVAPGQTARISCSGDNLPNYYAHWYQQKPGQAPVVVIFYDVNRPSGIPERFSGSNSGNTATLTISGTQAEDEADYYCQSWWDGVPVFGGGTKLTVLG | ratio | 22 |
| 2A8-127 (HC S35D+K99L/LC Y48F+N51V+G56D+V96W) (Fab, V domains shown) VH: QVQLVESGGGLVQPGGSLRLSCAASGFTFRSYGMDWVRQAPGKGLEWVSSIRGSSSSTYYADSVKGRFTISRDNSKNTLYLQMNSLRAEDTAVYYCARLYRYWFDYWGQGTLVTVSS VL: DIELTQPPSVSVAPGQTARISCSGDNLRNYYAHWYQQKPGQAPVVVIFYDVNRPSDIPERFSGSNSGNTATLTISGTQAEDEADYYCQSWDDGVPWFGGGTKLTVLG | ratio | 18.8 |

Notebook: 2A8 HC S31V+I51D+S55R+K99V/LC D1S+I2Y+A13S+S21T+R28P+N29K+Y48F+Y49R+N51S+E80M+D91L+D92S+V94T+V96W (Fab, V domains shown) VH: QVQLVESGGGLVQPGGSLRLSCAASGFTFRVYGMSWVRQAPGKGLEWVSSDRGSRSSTYYADSVKGRFTISRDNSKNTLYLQMNSLRAEDTAVYYCARVYRYWFDYWGQGTLVTVSS VL: SYELTQPPSVSVSPGQTARITCSGDNLPKYYAHWYQQKPGQAPVVVIFRDSNRPSGIPERFSGSNSGNTATLTISGTQAMDEADYYCQSWLSGTPWFGGGTKLTVLG , variant/HC_K99L read as 2.2
